# Assay Procedure: absolute recovery over vacuum-assisted evaporative concentration; higher = better recovery
# Run Conditions: wastewater effluent; enrichment method: VEC

{"columns": ["Compound", "absolute recovery / %"],
 "data": [
  ["O=C([O-])C(F)(F)C(F)(F)C(F)(F)C(F)(F)C(F)(F)C(F)(F)C(F)(F)F", 87.3],
  ["CC(=O)N(CC(O)CN(C(C)=O)c1c(I)c(C(=O)NCC(O)CO)c(I)c(C(=O)NCC(O)CO)c1I)c1c(I)c(C(=O)NCC(O)CO)c(I)c(C(=O)NCC(O)CO)c1I (centres undefined)", 149],
  ["COc1cccc(C2(O)CCCCC2C[NH3+])c1 (centres undefined)", 105],
  ["Cn1sccc1=O", 93.6]
]}

* * *

# Assay Procedure: absolute recovery over mixed-bed multilayer solid-phase extraction; higher = better recovery
# Run Conditions: nanopure water; enrichment method: SPE
Catalogue of absolute recovery readings, one per entry.

{"columns": ["Molecule", "absolute recovery [%]"],
 "data": [
  ["CCC(C)OC(=O)N1CCCCC1CCO (stereo not given)", 97.2],
  ["Cc1onc(-c2ccccc2)c1C(=O)NC1C(=O)N2C1SC(C)(C)C2C(=O)[O-] (stereo not given)", 61.2],
  ["CC(C)N1C(=O)c2ccccc2[N-]S1(=O)=O", 97.3],
  ["Cc1cccc(C)c1NC(=O)C1CCCC[NH+]1C (stereo not given) [Mepivacaine]", 78.4],
  ["CCCN(CCOc1c(Cl)cc(Cl)cc1Cl)C(=O)n1ccnc1", 99.3]
]}

* * *

# Assay Procedure: LC retention time (Atlantis T3, 5-95% MeOH gradient, 0.1% formic acid); higher = more retained / less polar
Measurement Name: LC retention time (min)

{"columns": ["Compound", "Measurement Name", "Assay Result"],
 "data": [
  ["COc1cc2[nH+]c(N(C)CCCNC(=O)C3CCCO3)nc(N)c2cc1OC (stereo not given) [Alfuzosin]", "LC retention time", 13.2],
  ["CC12CCC(=O)C=C1CCC1C2C(O)CC2(C)C(C(=O)CO)CCC12 (stereo not given) [Corticosteron]", "LC retention time", 19],
  ["CCN(CC)C(=O)Nc1ccc(OCC(O)C[NH2+]C(C)(C)C)c(C(C)=O)c1 (stereo not given) [Celiprolol]", "LC retention time", 13],
  ["CC[N-]S(=O)(=O)C(F)(F)C(F)(F)C(F)(F)C(F)(F)C(F)(F)C(F)(F)C(F)(F)C(F)(F)F [N-EtFOSA]", "LC retention time", 22.8],
  ["Nc1nc(N)[nH+]c(N)n1 [Melamin]", "LC retention time", 3.5]
]}

* * *

# Assay Procedure: absolute recovery over vacuum-assisted evaporative concentration; higher = better recovery
# Run Conditions: wastewater influent; enrichment method: VEC
So basically: absolute recovery at 90% or higher? That is Y. Lower than 90%? That is N.

{"columns": ["Compound", "Assigned Category"],
 "data": [
  ["COc1cc2[nH+]c(N(C)CCCNC(=O)C3CCCO3)nc(N)c2cc1OC (stereo not given) [Alfuzosin]", "Y"],
  ["CCCCOc1ccc(CC(=O)NO)cc1 [Bufexamac]", "N"],
  ["CC(C)N(C(=O)C(=O)[O-])c1ccc(F)cc1 [Flufenacet-OXA]", "Y"],
  ["CC(Cc1ccc(C(C)(C)C)cc1)C[NH+]1CCCCC1 (stereo not given) [Fenpropidin]", "N"],
  ["CNC(=O)Oc1cc(C)c(SC)c(C)c1 [Methiocarb]", "N"],
  ["COCC(=O)N(c1c(C)cccc1C)C(C)C(=O)OC (stereo not given) [Metalaxyl]", "Y"],
  ["N#Cc1c[nH]cc1-c1cccc2c1OC(F)(F)O2 [Fludioxonil]", "Y"],
  ["FC(F)(F)c1cccc(N2CC[NH2+]CC2)c1 [1-(3-Trifluoromethylphenyl)-piperazine]", "Y"],
  ["C=CS(=O)(=O)[O-] [Vinylsulfonic-acid]", "Y"]
]}
